Origin of measurements: the NIST ThermoML archive (doi:10.1021/je060088h)

Quick reference for Critical pressure among some compounds
# Conditions used: Liquid; flow method with low res time
Measured property: Critical pressure (kPa)

Compound: c1ccc2ccccc2c1 [naphthalene]
Numeric value: 4130
--
Compound: CC(O)COC(C)(C)C (stereo unspecified) [1-(1,1-dimethylethoxy)-2-propanol]
Numeric value: 2720
--
Compound: CCCCCCCCCCCCS [1-dodecanethiol]
Numeric value: 1810
--
Compound: C=CCO [2-propenol]
Numeric value: 5640
--
Compound: CSc1ccccc1 [1-phenyl-1-thiaethane]
Numeric value: 4050
--
Compound: OCCc1ccccc1 [2-phenylethanol]
Numeric value: 3990

----------
# Conditions used: Liquid; flow method with low res time

Compound: CSc1ccccc1
Critical temperature [K]: 705.9
//
Compound: C=CCO
Critical temperature [K]: 547.1
//
Compound: CC(O)COC(C)(C)C (stereo unspecified)
Critical temperature [K]: 600.7
//
Compound: CCCCCCCCCCCCS
Critical temperature [K]: 733.7
//
Compound: c1ccc2ccccc2c1
Critical temperature [K]: 750
//
Compound: OCCc1ccccc1
Critical temperature [K]: 723.5
